target.system: human 5-hydroxytryptamine-2C (h5-HT2C) receptor (Homo sapiens, UniProt P28335)
quantity.measured: pKi
In plain terms, pKi is the concentration in mol/L turned into minus its base-10 logarithm.

[in] So what's the measured pKi for this one? CSc1ccc2c(c1)C(N1CCN(C)CC1)Cc1ccccc1S2 (stereo not shown) [Methiothepin]
[out] 8.34

###

target.system: human 5-hydroxytryptamine-2C (h5-HT2C) receptor (Homo sapiens)
Sequence (P28335 33-458): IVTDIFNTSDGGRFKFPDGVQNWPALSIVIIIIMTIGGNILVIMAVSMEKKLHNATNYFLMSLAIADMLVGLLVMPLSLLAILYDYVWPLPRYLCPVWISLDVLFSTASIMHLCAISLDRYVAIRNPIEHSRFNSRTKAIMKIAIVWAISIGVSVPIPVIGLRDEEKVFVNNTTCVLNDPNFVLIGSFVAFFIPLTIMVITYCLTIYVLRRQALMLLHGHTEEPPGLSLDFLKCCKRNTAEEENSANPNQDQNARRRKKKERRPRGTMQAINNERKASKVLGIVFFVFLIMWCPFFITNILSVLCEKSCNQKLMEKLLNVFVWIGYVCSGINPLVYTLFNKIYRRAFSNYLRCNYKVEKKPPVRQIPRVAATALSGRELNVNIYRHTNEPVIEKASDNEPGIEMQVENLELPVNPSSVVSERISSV
quantity.measured: Kd (nM)
Express the result in nM but write the number alone.

[in] So what's the measured Kd for this one? COc1cc(CC(C)N)c(OC)cc1I (stereo not shown) [[^125I] DOI]
[out] 0.4

// provenance: patent US20060258739A1
